# System: UACC-62 melanoma
# assay-details: NCI tumour cell line growth inhibition, 48 h
Please go through the items and note down their TGI.

Need TGI, item CC[C@H](C)[C@H](NC(=O)Nc1ccccc1)C(=O)N(C)[C@H](C[C@@H](OC(C)=O)c1nc(C(=O)N[C@@H](Cc2ccccc2)C[C@H](C)C(=O)OC)cs1)C(C)C
> 100 µM

Please report the recorded TGI for O=C1OC(C2=CC(=O)c3ccccc3C2=O)C(Cl)=C1Cl (stereo unspecified) .
39.5 µM

Returns the measured TGI for the input compound. Input: CC(=O)C1C(=O)C(=O)N(c2ccccc2N2C(=O)C(=O)C(C(C)=O)C2=O)C1=O (stereo unspecified)
> 100 µM

Name the reported TGI value associated with the compound CC(C)=CCC[C@](C)(O[C@@H]1O[C@H](CO)[C@@H](O)[C@H](O)[C@H]1O)[C@H]1CC[C@]2(C)[C@@H]1[C@H](O)C[C@@H]1[C@@]3(C)CC[C@H](O)C(C)(C)[C@@H]3[C@@H](O[C@@H]3O[C@H](CO)[C@@H](O)[C@H](O)[C@H]3O)C[C@]12C
> 100 µM

Which TGI is listed for Cc1cc(S(=O)(=O)NC2=NC(c3ccccc3)c3ccccc3N2)c(S)cc1Cl (stereo unspecified) ?
> 100 µM

State the recorded TGI for this entry: CN(C)CCNC(=O)Cn1ccc(=O)c2ccc([N+](=O)[O-])cc21
> 100 µM
